Assign interaction score to each entry below.
- SYSTEM TESTED: T1, 4H3427-AA
- T1 chain: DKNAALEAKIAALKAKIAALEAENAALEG
- ASSAY TEXT: two-hybrid library CCmax;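 also: natural log of median RNA to DNA barcode read ratio; higher means stronger binding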
- CONDITIONS USED: mean of both orientations
Answers are plain numbers.

For orientation, consider the following solved cases.
1. DEIAALEAKIAALKAENAALEAKIAALKG [4H342-AA] ... -1.15
2. DKIAALEAEIAALKAKIAALEAKNAALEG [4H2151-AA] ... -1.02
3. DENAALEAEIAALKAKIAALKAKNAALEG [4H1135-AA] ... -1.05

// switching to the query binder
Task item: Item under review: DENAALEAENAALEAEIAALEAEIAALEG [4H1153-AA] . Reported interaction score?
Reply: -0.781
